conditions: [M+Na]+; instrument: DT; single field, calibrated with Agilent tune mix (Agilent)
Entries and their measured collision cross section (N2) follow.
Reply with just the number (in Å²).

# count of solved cases: 2
1) N[C@H]1C(O)O[C@H](COP(=O)(O)O)[C@@H](O)[C@@H]1O (stereo partly drawn) [D-glucosamine 6-phosphate] :: 156.6
2) NC(Cc1c[nH]c2ccc(O)cc12)C(=O)O (stereo unspecified) [5-Hydroxytryptophan] :: 152.2

Requested field: collision cross section (N2). Item: CC(=O)NC(CCC(N)=O)C(=O)O (stereo unspecified) 144.2

Requested field: collision cross section (N2). Item: O=C1O[C@H]([C@@H](O)CO)[C@H](O)[C@@H]1O 140.6

Requested field: collision cross section (N2). Item: OCC1(O)OC[C@@H](O)[C@H](O)[C@@H]1O (stereo partly specified) 139

Requested field: collision cross section (N2). Item: C[C@H](CCC(=O)NCCS(=O)(=O)O)[C@H]1CC[C@H]2[C@@H]3[C@H](O)C[C@@H]4C[C@H](O)CC[C@]4(C)[C@H]3C[C@H](O)[C@]12C [Taurocholate] 211.2

Requested field: collision cross section (N2). Item: CC(=O)N[C@@H]1C(O)O[C@H](CO)[C@@H](O)[C@@H]1O (stereo partly specified) 149.9

* * *

conditions: [M+NH4]+; instrument: TW; calibrated with phosphatidylcholines (ESI+) and phosphatidylethanolamines (ESI-)
metric-name: collision cross section (N2) (Å²)
Reply with just the number (in Å²).

1) CCCCCCCCCCC=CCC=CCC(=O)OC[C@H](CO[C@@H]1O[C@H](CO[C@H]2O[C@H](CO)[C@H](O)C(O)C2O)[C@H](O)C(O)C1O)OC(=O)CC=CCC=CCCCCCCCCCC (some centres not stated) [DGDG(16:1/18:3)] :: 303.5

Requested field: collision cross section (N2). Item: CCCCCCCCC=CCC=CCC=CCC(=O)OC[C@H](CO[C@@H]1O[C@H](CO[C@H]2O[C@H](CO)[C@H](O)C(O)C2O)[C@H](O)C(O)C1O)OC(=O)CC=CCC=CCC=CCCCCCCCC (some centres not stated) [DGDG(18:3/18:3)] 303.2

Requested field: collision cross section (N2). Item: CCCCCCCCCCCCCC=CCC(=O)OC[C@H](CO[C@@H]1O[C@H](CO[C@H]2O[C@H](CO)[C@H](O)C(O)C2O)[C@H](O)C(O)C1O)OC(=O)CC=CCCCCCCCCCCCCC (some centres not stated) [DGDG(34:2)] 309

* * *

conditions: [M+H-H2O]+; instrument: DT; single field, calibrated with Agilent tune mix (Agilent)
Entries and their measured collision cross section (N2) follow.
Reply with just the number (in Å²).

Requested field: collision cross section (N2). Item: Nc1c(O)cccc1C(=O)C[C@H](N)C(=O)O [3-Hydroxy-L-kynurenine] 137.5

* * *

settings: [M+2Na-H]+; instrument: DT; stepped-field
Entries and their measured collision cross section (N2) follow.
Reply with just the number (in Å²).

# count of solved cases: 5
1) CCCCCCCC/C=C\C/C=C\CCCCC(=O)O[C@H](COC(=O)CCCCCCC/C=C\CCCCCCCC)COP(=O)([O-])OCC[N+](C)(C)C :: 288.51
2) CC/C=C\C/C=C\C/C=C\CCCCCCCC(=O)O[C@H](COC(=O)CCCCC/C=C\C/C=C\C/C=C\C/C=C\CCCCC)COP(=O)(O)OC[C@H](N)C(=O)O :: 290.15
3) CCCCC/C=C\C/C=C\CCCCCCCCCC(=O)O[C@H](COC(=O)CCCCCCC/C=C\CCCCCC)COP(=O)(O)O :: 271.74
4) CCCCC/C=C\C/C=C\C/C=C\C/C=C\CCCCCC(=O)O[C@H](COCCCCCCCCCCCCCCCCCC)COP(=O)(O)OCCN :: 293.52
5) CCCCC/C=C\C/C=C\CCCCCCCCCC(=O)O[C@H](COC(=O)CCCCCCC/C=C\CCCCCCCC)COP(=O)(O)O :: 279.8

Kindly consider the entry below.
Requested field: collision cross section (N2). Item: CCCCC/C=C\C/C=C\C/C=C\C/C=C\C/C=C\CCC(=O)O[C@H](COCCCCCCCCCCCCCCCC)COP(=O)(O)OCCN 282.48
